Target Or System: T1, human activated protein C (human, UniProt P04070 43-197; P04070 212-461)
T1 construct: also called human aPC; human APC
Experimental Details: ELISA, coated antigen
Reported values of pEC50 for individual entries
Interpret pEC50 as the negative base-10 log of the concentration measured in mol/L.

Hu1573-10 (antibody, V domains shown, Humanized IgG, human gamma 1 / kappa constant regions by vectors pCP-hCg1 and pCP-hck; also called H1573VH.1D + H1573Vk.2A) VH: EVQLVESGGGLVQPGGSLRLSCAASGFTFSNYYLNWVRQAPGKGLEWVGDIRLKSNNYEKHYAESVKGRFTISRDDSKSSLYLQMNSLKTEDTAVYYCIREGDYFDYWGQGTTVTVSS VL: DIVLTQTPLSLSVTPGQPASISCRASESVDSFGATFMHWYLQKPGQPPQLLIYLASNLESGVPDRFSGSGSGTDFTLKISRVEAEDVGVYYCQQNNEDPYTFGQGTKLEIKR | 9.24

The reported pEC50 of the binder Hu1573-15 (antibody, V domains shown, Humanized IgG, human gamma 1 / kappa constant regions by vectors pCP-hCg1 and pCP-hck; also called H1573VH.1F + H1573Vk.2) VH: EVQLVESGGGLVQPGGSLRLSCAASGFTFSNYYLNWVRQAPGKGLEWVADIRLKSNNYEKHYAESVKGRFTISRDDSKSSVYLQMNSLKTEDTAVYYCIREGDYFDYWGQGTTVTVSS VL: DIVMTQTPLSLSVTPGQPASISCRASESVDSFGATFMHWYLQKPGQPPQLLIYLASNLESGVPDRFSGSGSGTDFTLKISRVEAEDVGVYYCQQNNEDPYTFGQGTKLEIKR was 9.54
